Biological target: RORγt (Mus musculus, UniProt P51450, T352K)
Sequence (P51450 with tags, fused parts or gaps T352K): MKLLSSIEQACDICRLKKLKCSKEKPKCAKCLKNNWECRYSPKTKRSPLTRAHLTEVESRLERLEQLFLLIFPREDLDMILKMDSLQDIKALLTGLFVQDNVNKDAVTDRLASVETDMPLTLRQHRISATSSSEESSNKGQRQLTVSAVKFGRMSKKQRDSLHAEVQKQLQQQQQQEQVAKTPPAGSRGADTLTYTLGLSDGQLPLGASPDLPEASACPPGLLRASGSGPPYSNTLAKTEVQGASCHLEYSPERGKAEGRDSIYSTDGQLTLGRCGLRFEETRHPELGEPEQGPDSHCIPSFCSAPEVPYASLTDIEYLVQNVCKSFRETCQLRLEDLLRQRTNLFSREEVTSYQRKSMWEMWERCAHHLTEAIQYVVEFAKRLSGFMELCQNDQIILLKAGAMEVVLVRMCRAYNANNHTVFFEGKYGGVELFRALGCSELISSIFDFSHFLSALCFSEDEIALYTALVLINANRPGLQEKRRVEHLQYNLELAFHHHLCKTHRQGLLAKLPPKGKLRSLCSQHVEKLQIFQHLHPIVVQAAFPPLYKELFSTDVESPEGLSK
Assay: RORγt S2 cell Gal4-luciferase reporter assay
Details: IC50(μM), Drosophila S2 cells, Gal4-RORγt luciferase reporter, 20 hr
PROPERTY NAME: IC50

These solved cases illustrate the format of a correct answer.
>>> reported("COc1cc(O)c(C(CC(=O)N2CC(C)CC(C)C2)c2ccc3c(c2)OC(F)(F)O3)c(OC)c1 (stereo not shown)")
"1 to 10 µM"
>>> reported("COc1ccc(C(CC(=O)N2CCCC(C)C2)c2c(O)cc(OC)cc2OC)c(OC)c1 (stereo not shown)")
"11 to 50 µM"

Each compound below has a reported value. Please supply its IC50.
1. COc1ccc2ccccc2c1C(c1ccc(F)cc1)C(C)(C)C(=O)N1CC(C)CC(C)C1 (stereo not shown)
2. COc1cc(O)c(C(CC(=O)N2CCN(c3ccc(F)cc3)CC2)c2ccc3c(c2)OCO3)c(OC)c1 (stereo not shown)

Found:
1: 1 to 10 µM; 2: > 50 µM

* * *

Molecular target: RORγt (Mus musculus, UniProt P51450, T352K)
Test: RORγt S2 cell Gal4-luciferase reporter assay
Conditions: read-out: Efficacy (%)
PROPERTY NAME: Emax (%)
One number for each entry, in %.

Each compound below has a reported value. Please supply its Emax.
1. COc1cc(O)c(C(CC(=O)N2CC(C)CC(C)C2)c2ccc(C(C)(C)C)cc2)c(OC)c1 (stereo not shown)
2. COc1cc(O)c(C(CC(=O)N2CCCC(C)C2)c2ccc(OC)c(OC)c2)c(OC)c1 (stereo not shown)
3. COc1cc(O)c(C(CC(=O)N2CC(C)CC(C)C2)c2ccc3c(c2)OCO3)c(OC)c1 (stereo not shown)
4. CCCC1CCN(C(=O)CC(c2ccc3c(c2)OCO3)c2c(O)cc(OC)cc2OC)C1 (stereo not shown)

Found:
[95.4, 98.2, 97.7, 63.5]

* * *

Biological target: RORγt (Mus musculus, UniProt P51450, T352K)
Experiment: RORγt S2 cell Gal4-luciferase reporter assay
Details: IC50(μM), Drosophila S2 cells, Gal4-RORγt luciferase reporter, 20 hr
PROPERTY NAME: IC50

>>> reported("COc1cc(O)c(C(CC(=O)N2CC(C)CC(C)C2)c2cc(Cl)cc(Cl)c2)c(OC)c1 (centres unmarked)")
"11 to 50 µM"
>>> reported("COc1cc(O)c(C(CC(=O)N2CCCC(c3ccccc3)C2)c2ccc3c(c2)OCO3)c(OC)c1 (centres unmarked)")
"11 to 50 µM"
>>> reported("COc1ccccc1C(CC(=O)Nc1ccc(F)cc1)c1ccccc1 (centres unmarked)")
"> 50 µM"
>>> reported("COc1cc(O)c(C(CC(=O)N2CCc3ccccc3C2)c2ccc3c(c2)OCO3)c(OC)c1 (centres unmarked)")
"11 to 50 µM"
>>> reported("O=C(CC(c1ccc2c(c1)OCO2)c1c(O)ccc2ccccc12)N1CCCCC1 (centres unmarked)")
"11 to 50 µM"

Each molecule below has a reported value. Please supply its IC50.
1. COc1ccc(C(CC(=O)N2CCCC(C)C2)c2ccccc2)cc1 (centres unmarked)
2. CCOc1ccc(O)c(C(CC(=O)N2CCCC(C)C2)c2ccc3c(c2)OCO3)c1 (centres unmarked)
3. COCC1CCCN(C(=O)CC(c2ccc3c(c2)OCO3)c2c(O)cc(OC)cc2OC)C1 (centres unmarked)

Found:
1: > 50 µM; 2: 11 to 50 µM; 3: 11 to 50 µM
